Tested on: Male Institute of Cancer Research (ICR) mice
METHOD SUMMARY: Tail-flick test, blockade of nicotine-induced antinociception
Type: in vivo
MEASUREMENT PARAMETERS: Mus musculus, 5 min, mice; pretreatment 15 min before nicotine 2.5 mg/kg s.c.; tested 5 min after nicotine; read-out: AD50 Tail-flick
OUTCOME MEASURE: ED50 (mg/kg)
Give bare numbers, in mg/kg.

Record excerpt, results attached:
COMPOUND: C[C@H]1NC(C)(C)CO[C@]1(O)c1cccc(Cl)c1 [Compound (2R,3R)-4a, reference compound]
ED50, mg/kg: 2.5
--
COMPOUND: Cc1ccc([C@]2(O)OCC(C)(C)N[C@H]2C)cc1
ED50, mg/kg: 0.004
--
COMPOUND: CC1NC(C)(C)COC1(O)c1ccc(Cl)c(Cl)c1 (racemic)
ED50, mg/kg: 8.8
--
COMPOUND: C[C@@H]1N(C)C(C)(C)CO[C@@]1(O)c1cccc(Cl)c1
ED50, mg/kg: 0.016
--
COMPOUND: C[C@@H]1NC(C)(C)CO[C@@]1(O)c1ccc(F)c(F)c1
ED50, mg/kg: 0.006

Hey, can you go through the list below and give me ED50 for every item?
1. COc1cccc([C@]2(O)OCC(C)(C)N[C@H]2C)c1
2. CC[C@@H]1NC(C)(C)CO[C@@]1(O)c1cccc(Cl)c1

1: 5.85; 2: 0.004

* * *

Assign pIC50 to each entry below.
STUDY SYSTEM: α3β4*-nAChR (Homo sapiens, UniProt P30926+P32297)
Construct: other: EC80-EC90 carbamylcholine; SH-SY5Y; parentheses = S.E.M. as multiplication/division
Sequence (P32297 32-505): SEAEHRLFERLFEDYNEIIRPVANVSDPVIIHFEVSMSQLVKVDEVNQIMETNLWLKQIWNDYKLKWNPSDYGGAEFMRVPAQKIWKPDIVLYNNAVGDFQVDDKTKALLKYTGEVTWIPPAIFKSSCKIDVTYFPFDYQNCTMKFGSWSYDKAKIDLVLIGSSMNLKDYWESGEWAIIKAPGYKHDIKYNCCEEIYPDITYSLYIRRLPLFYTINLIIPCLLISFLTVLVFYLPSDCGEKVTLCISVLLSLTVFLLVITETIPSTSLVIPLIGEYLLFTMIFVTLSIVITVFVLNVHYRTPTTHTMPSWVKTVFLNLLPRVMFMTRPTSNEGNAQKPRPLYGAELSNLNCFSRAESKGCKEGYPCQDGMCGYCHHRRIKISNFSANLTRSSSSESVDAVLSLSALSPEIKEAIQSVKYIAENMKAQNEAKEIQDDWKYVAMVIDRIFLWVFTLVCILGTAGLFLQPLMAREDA
Sequence (P30926 22-498): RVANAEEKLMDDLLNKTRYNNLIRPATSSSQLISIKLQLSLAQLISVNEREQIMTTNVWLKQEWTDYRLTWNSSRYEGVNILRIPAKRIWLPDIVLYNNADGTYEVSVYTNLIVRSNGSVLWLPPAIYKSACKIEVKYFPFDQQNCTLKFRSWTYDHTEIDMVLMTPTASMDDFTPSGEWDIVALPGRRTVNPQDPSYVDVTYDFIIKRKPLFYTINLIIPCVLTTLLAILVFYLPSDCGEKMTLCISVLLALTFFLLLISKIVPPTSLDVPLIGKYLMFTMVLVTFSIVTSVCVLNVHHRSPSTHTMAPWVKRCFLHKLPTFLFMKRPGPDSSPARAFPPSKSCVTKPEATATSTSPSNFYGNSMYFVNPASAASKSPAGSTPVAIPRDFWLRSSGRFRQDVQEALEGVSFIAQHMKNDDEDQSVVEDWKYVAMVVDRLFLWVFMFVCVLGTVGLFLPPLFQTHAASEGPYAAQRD
METHOD SUMMARY: 86Rb+ efflux nAChR functional assay, SH-SY5Y cells
Assay type: cell-based
MEASUREMENT PARAMETERS: EC80-EC90 carbamylcholine; SH-SY5Y; parentheses = S.E.M. as multiplication/division factor; read-out: nAChR inhibition IC50 α3β4±
Numbers only, as −log10 of the molar value.

Hey, can you go through the list below and give me pIC50 for every item?
1. COc1ccc([C@]2(O)OCC(C)(C)N[C@H]2C)cc1
2. C[C@@H]1NC(C)(C)CO[C@@]1(O)c1cc(F)cc(F)c1
3. C[C@@H]1N(C)C(C)(C)CO[C@@]1(O)c1cccc(Cl)c1
4. C[C@@H]1NC(C)(C)CO[C@@]1(O)c1cccc(Br)c1
5. C[C@@H]1NC(C)(C)CO[C@@]1(O)c1ccc(Cl)cc1
6. C[C@@H]1NC(C)(C)CO[C@@]1(O)c1ccc(F)cc1

[4.96, 4.96, 5.19, 5.49, 5.29, 4.70]

* * *

STUDY SYSTEM: human DA transporters [(h)DAT] (Homo sapiens, UniProt Q01959)
Construct: expressed in transfected cells; host or cells: HEK-293
Sequence (Q01959 whole entry): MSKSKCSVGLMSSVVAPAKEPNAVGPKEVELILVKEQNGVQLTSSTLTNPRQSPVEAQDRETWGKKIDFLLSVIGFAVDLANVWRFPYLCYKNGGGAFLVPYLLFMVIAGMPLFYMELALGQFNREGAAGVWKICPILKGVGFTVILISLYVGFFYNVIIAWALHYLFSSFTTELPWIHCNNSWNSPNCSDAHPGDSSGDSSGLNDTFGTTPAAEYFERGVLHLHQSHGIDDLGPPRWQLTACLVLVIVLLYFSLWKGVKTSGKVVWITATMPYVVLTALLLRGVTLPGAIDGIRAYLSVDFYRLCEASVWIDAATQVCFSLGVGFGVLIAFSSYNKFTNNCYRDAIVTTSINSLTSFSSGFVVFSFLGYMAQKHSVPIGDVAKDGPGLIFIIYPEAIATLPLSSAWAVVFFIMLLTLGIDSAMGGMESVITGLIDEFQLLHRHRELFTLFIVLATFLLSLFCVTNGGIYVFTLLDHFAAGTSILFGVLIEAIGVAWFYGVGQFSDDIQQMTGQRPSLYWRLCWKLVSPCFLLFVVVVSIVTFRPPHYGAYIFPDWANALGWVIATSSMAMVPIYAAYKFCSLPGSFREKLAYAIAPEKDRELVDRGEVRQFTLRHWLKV
METHOD SUMMARY: Inhibition of [3H]dopamine uptake into HEK293 cells stably expressing hDAT
Format: cell-based
MEASUREMENT PARAMETERS: HEK293-hDAT; mean ± standard error of three independent experiments; read-out: monoamine uptake inhibition IC50 [3H]DA
OUTCOME MEASURE: IC50 (µM)
Give bare numbers, in µM.

COMPOUND: C[C@@H]1N(C)C(C)(C)CO[C@@]1(O)c1cccc(Cl)c1 [Compound 4u]
STUDY SYSTEM: human DA transporters [(h)DAT] (Homo sapiens, UniProt Q01959)
MEASURED RESULT: 3.4

Hey, can you go through the list below and give me IC50 for every item?
1. C[C@@H]1NC(C)(C)CO[C@@]1(O)c1cccc([N+](=O)[O-])c1 [Compound 4g]
2. CC1NC(C)(C)COC1(O)c1cc(Cl)cc(Cl)c1 (racemic) [Compound 4p]
3. C[C@@H]1NC(C)(C)CO[C@@]1(O)c1cccc2ccccc12 [Compound 4q]

12
8.25
10
